target: T1, human Claudin 18.2 (CLDN18.2) (human, UniProt P56856-2 1-261)
T1 construct: whole, on cells; recombinantly expressed on CHO, HEK293, NCI-N87, NUGC4 or PANC-1 cells; also called CHO-CLDN18.2
experiment.notes: FACS on CHO-CLDN18.2 cells
property: EC50 (nM)
Numeric only. Scale: nM

# binder, EC50 / nM
records = [
    ("413H9F8-cp1 (antibody, V domains shown, humanized IgG; constant regions not specified) VH: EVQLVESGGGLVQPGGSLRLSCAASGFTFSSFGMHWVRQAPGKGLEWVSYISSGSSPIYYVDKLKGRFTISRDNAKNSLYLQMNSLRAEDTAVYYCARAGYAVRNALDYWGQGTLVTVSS VL: EIVMTQSPPTLSLSPGERVTLSCKSSQSLLNVGNQKNYLAWYQQKPGQAPRLLIYGASTRESGIPARFSGSGSGTDFTLTISSLQPEDFAVYYCQNDLFYPLTFGGGTKVEIK", 2.6),
    ("413H9F8-VL-S32V (antibody, human IgG1, kappa, V domains shown, chimeric human IgG1, PTM site removed; also called 413H9F8-VL-32V; 413H9F8-VL-532V) VH: DVQLVESGGGSVQPGGSRRLSCAASGFTFSSFGMHWVRQAPEKGLEWVAYISSGSSPIYYVDKLKGRFTVSRDNPKNTLFLQMTSLRSEDTAMYYCARAGYAVRNALDYWGQGTSITVSS VL: DIVMTQSPSSLSVSVGEKVTLSCKSSQSLLNVGNQKNYLAWYQQKTGQPPKLLIYGASTRESGVPDRFIGSGSGTDFTLTISSVQAEDLAVYFCQNDLFYPLTFGAGTKLELKR", 1.84),
]

Here's the next entry for you.
Quick one: EC50 of 413H9F8-cp3 (antibody, V domains shown, humanized IgG; constant regions not specified) VH: DVQLVESGGGLVQPGGSLRLSCAASGFTFSSFGMHWVRQAPGKGLEWVAYISSGSSPIYYVDKLKGRFTVSRDNAKNSLYLQMNSLRAEDTAVYYCARAGYAVRNALDYWGQGTLVTVSS VL: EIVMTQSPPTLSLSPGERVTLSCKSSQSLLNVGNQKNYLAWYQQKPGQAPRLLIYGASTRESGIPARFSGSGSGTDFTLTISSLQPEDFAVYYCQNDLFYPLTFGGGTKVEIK ? 2.09
